Tested on: giant foxtail (Setaria faberii)
ASSAY OVERVIEW: Test B preemergence, giant foxtail
Type: in vivo
SETTINGS: 31 g ai/ha, scale 0 to 100
Text: […]
Recorded Plant response rating, Foxtail, Giant by entry
Just the number, please.

>>> reported_measurement("CC1(C)CC(S(=O)(=O)Cc2c(C(F)(F)C(F)(F)F)nc3n(c2=O)CCCC3)=NO1")
60

Measured Plant response rating, Foxtail, Giant for this entry CC1(C)CC(S(=O)(=O)Cc2c(C(F)(F)C(F)(F)F)nc3n(c2=O)CCC3)=NO1 on giant foxtail (Setaria faberii): 50

Measured Plant response rating, Foxtail, Giant for this entry CC1(C)CC(S(=O)(=O)Cc2c(C(F)(F)F)nc3n(c2=O)CCC3)=NO1 on giant foxtail (Setaria faberii): 40

Measured Plant response rating, Foxtail, Giant for this entry CC1(C)CC(S(=O)(=O)Cc2c(C(F)(F)Cl)nc3n(c2=O)CCC3)=NO1 on giant foxtail (Setaria faberii): 80

###

Recorded Plant response rating, Barnyardgrass by entry
System: barnyardgrass (Echinochloa crus-galli)
ASSAY OVERVIEW: Test A preemergence, barnyardgrass
Assay type: in vivo
SETTINGS: 500 g ai/ha, 0 to 100 scale (0 no effect, 100 complete control)
Just the number, please.

Measured Plant response rating, Barnyardgrass for this entry CCn1c(=O)c(C[S+]([O-])C2=NOC(C)(C)C2)nc2ccccc21 (stereo not shown) [Compound 29] on barnyardgrass (Echinochloa crus-galli): 0

Measured Plant response rating, Barnyardgrass for this entry CC1(C)CC(S(=O)(=O)Cc2c(C(F)(F)F)nc3cccnn3c2=O)=NO1 [Compound 45] on barnyardgrass (Echinochloa crus-galli): 90

Measured Plant response rating, Barnyardgrass for this entry CC1(C)CC([S+]([O-])Cc2c(C(F)(F)C(F)(F)F)nc3n(c2=O)CCC3)=NO1 (stereo not shown) [Compound 27] on barnyardgrass (Echinochloa crus-galli): 90

Measured Plant response rating, Barnyardgrass for this entry CC1(C)CC([S+]([O-])Cc2c(C(F)(F)F)nc3n(c2=O)CCC3)=NO1 (stereo not shown) [Compound 10] on barnyardgrass (Echinochloa crus-galli): 70

###

System: pigweed (Amaranthus retroflexus)
ASSAY OVERVIEW: Test A postemergence, pigweed
Format: in vivo
SETTINGS: 500 g ai/ha, 0 to 100 scale (0 no effect, 100 complete control)
Recorded Plant response rating, Pigweed by entry
Just the number, please.

>>> reported_measurement("CC1(C)CC(S(=O)(=O)Cc2c(C(F)(F)F)nc3n(c2=O)CCCC3)=NO1")
60
>>> reported_measurement("CC1(C)CC(S(=O)(=O)Cc2c(C(F)(F)F)nc3ccon3c2=O)=NO1")
10
>>> reported_measurement("CC1(C)CC(S(=O)(=O)Cc2c(C(F)(F)F)nc3n(c2=O)CCO3)=NO1")
60
>>> reported_measurement("CC1(C)CC([S+]([O-])Cc2c(C(F)(F)F)nc3cccnn3c2=O)=NO1 (centres unmarked)")
0

So for CC1(C)CC(S(=O)(=O)Cc2c(C(F)(F)F)nc3ccsn3c2=O)=NO1 , the logged Plant response rating, Pigweed turned out to be 50

So for CC1(C)CC(S(=O)(=O)Cc2c(C(F)(F)C(F)(F)F)nc3n(c2=O)CCCO3)=NO1 , the logged Plant response rating, Pigweed turned out to be 10

So for Cn1c(=O)c(CS(=O)(=O)C2=NOC(C)(C)C2)c(C(F)(F)F)c2ccccc21 , the logged Plant response rating, Pigweed turned out to be 50

So for Cn1c(=O)c(C[S+]([O-])C2=NOC(C)(C)C2)nc2ccccc21 (centres unmarked) , the logged Plant response rating, Pigweed turned out to be 0
